target: GST-hRIPK1 (8-327) (Homo sapiens (Human), UniProt Q13546); assay: Fluorescent Polarization Binding (FP Binding) assay
Sequence (Q13546 8-327): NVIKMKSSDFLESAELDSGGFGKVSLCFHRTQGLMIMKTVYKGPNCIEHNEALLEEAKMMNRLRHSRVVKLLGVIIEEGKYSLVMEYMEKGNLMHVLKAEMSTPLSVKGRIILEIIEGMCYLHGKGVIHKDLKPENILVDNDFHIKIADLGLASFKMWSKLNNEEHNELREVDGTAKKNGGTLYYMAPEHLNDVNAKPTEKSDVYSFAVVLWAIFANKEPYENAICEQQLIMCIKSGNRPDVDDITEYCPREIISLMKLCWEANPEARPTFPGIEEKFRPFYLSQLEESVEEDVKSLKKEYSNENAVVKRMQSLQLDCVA
observable: IC50

Reference set (3 entries):
molecule	study-system	result
CN1C(=O)[C@@H](NC(=O)c2nnc([C@@H]3CCc4ccccc43)[nH]2)COc2cccnc21 [Example 54A]	GST-hRIPK1 (8-327) (Homo sapiens (Human), UniProt Q13546)	0.1 to 1000 nM
O=C(N[C@H]1COc2cccnc2NC1=O)c1nnc(C2CCc3ccccc32)[nH]1 (single isomer, unassigned) [Example 102A]	GST-hRIPK1 (8-327) (Homo sapiens (Human), UniProt Q13546)	1000 to 10000 nM
CN1C(=O)[C@H](NC(=O)c2nn(Cc3ccccc3F)cc2F)[C@@H]2C[C@@H]2c2nccnc21 [Example 179B]	GST-hRIPK1 (8-327) (Homo sapiens (Human), UniProt Q13546)	> 3000 nM

Then this molecule:
Asked: Query for GST-hRIPK1 (8-327) (Homo sapiens (Human), UniProt Q13546): what IC50 does the record show for CN1C(=O)[C@@H](NC(=O)c2cc(Cc3ccccc3)on2)[C@H]2C[C@H]2c2nccnc21 ?
Given back: 0.1 to 1000 nM

----------
molecular target: GST-hRIPK1 (8-327) (Homo sapiens (Human), UniProt Q13546); experiment: Fluorescent Polarization Binding (FP Binding) assay
pIC50: −log10 of the molar value.
Parameter: pIC50. Scope: all listed entries.

Reference set (5 entries):
compound	study-system	pIC50
CN1C(=O)[C@@H](NC(=O)c2nn(Cc3ccccc3F)cc2F)[C@H]2C[C@H]2c2nccnc21 [Example 179A]	GST-hRIPK1 (8-327) (Homo sapiens (Human), UniProt Q13546)	6.00 to 10.00
CN1C(=O)[C@H](NC(=O)c2nnc(Cc3ccccc3)[nH]2)CCc2nn(C)cc21 [Example 105B]	GST-hRIPK1 (8-327) (Homo sapiens (Human), UniProt Q13546)	< 5.52
C[C@H]1Oc2cccnc2N(C)C(=O)[C@H]1NC(=O)c1cc(Oc2ccccc2F)cnn1	GST-hRIPK1 (8-327) (Homo sapiens (Human), UniProt Q13546)	6.00 to 10.00
C[C@H]1Oc2cccnc2N(C)C(=O)[C@H]1NC(=O)c1nn(Cc2ccccc2)cc1F	GST-hRIPK1 (8-327) (Homo sapiens (Human), UniProt Q13546)	6.00 to 10.00
CN1C(=O)[C@@H](NC(=O)c2cn(Cc3ccccc3)nn2)[C@H]2C[C@H]2c2nccnc21	GST-hRIPK1 (8-327) (Homo sapiens (Human), UniProt Q13546)	6.00 to 10.00

Asked: Query for GST-hRIPK1 (8-327) (Homo sapiens (Human), UniProt Q13546): what pIC50 does the record show for CN1C(=O)[C@@H](NC(=O)c2cnc(Cc3ccccc3)[nH]2)COc2cccnc21 ?
Given back: 6.00 to 10.00

Asked: Query for GST-hRIPK1 (8-327) (Homo sapiens (Human), UniProt Q13546): what pIC50 does the record show for O=C(N[C@H]1COc2cccnc2NC1=O)c1ncc(Cc2ccccc2)s1 ?
Given back: 6.00 to 10.00

Asked: Query for GST-hRIPK1 (8-327) (Homo sapiens (Human), UniProt Q13546): what pIC50 does the record show for C[C@H]1Oc2cccnc2N(C)C(=O)[C@H]1NC(=O)c1ncn(Cc2cccc(C#N)c2)n1 ?
Given back: 6.00 to 10.00

Asked: Query for GST-hRIPK1 (8-327) (Homo sapiens (Human), UniProt Q13546): what pIC50 does the record show for CN1C(=O)[C@H](NC(=O)c2nn(Cc3ccc(F)cc3)cc2F)[C@@H]2C[C@@H]2c2cccnc21 [Example 156A] ?
Given back: < 5.52

Asked: Query for GST-hRIPK1 (8-327) (Homo sapiens (Human), UniProt Q13546): what pIC50 does the record show for CN1C(=O)[C@H](NC(=O)c2nn(Cc3ccccc3)cc2F)CCc2c1cnn2C [Example 114B] ?
Given back: < 5.52

Asked: Query for GST-hRIPK1 (8-327) (Homo sapiens (Human), UniProt Q13546): what pIC50 does the record show for CN1C(=O)[C@@H](NC(=O)c2nn(Cc3cncc(F)c3)cc2F)COc2cccnc21 ?
Given back: 6.00 to 10.00

Asked: Query for GST-hRIPK1 (8-327) (Homo sapiens (Human), UniProt Q13546): what pIC50 does the record show for CN1C(=O)[C@@H](NC(=O)c2cc(Cc3ccccc3)on2)COc2cccnc21 ?
Given back: 6.00 to 10.00

Asked: Query for GST-hRIPK1 (8-327) (Homo sapiens (Human), UniProt Q13546): what pIC50 does the record show for O=C(N[C@@H]1CC2(CC2)c2cccnc2NC1=O)c1nnc(Cc2ccccc2)[nH]1 [Example 98A] ?
Given back: < 5.52

Asked: Query for GST-hRIPK1 (8-327) (Homo sapiens (Human), UniProt Q13546): what pIC50 does the record show for O=C(N[C@H]1CCc2ccccc2-n2ccnc21)c1cc(Cc2ccccc2)on1 ?
Given back: 6.00 to 10.00

Asked: Query for GST-hRIPK1 (8-327) (Homo sapiens (Human), UniProt Q13546): what pIC50 does the record show for C[C@@H]1Oc2cccnc2N(C)C(=O)[C@H]1NC(=O)c1nnc(Cc2ccccc2)[nH]1 ?
Given back: < 5.52

Asked: Query for GST-hRIPK1 (8-327) (Homo sapiens (Human), UniProt Q13546): what pIC50 does the record show for CN1C(=O)[C@H](NC(=O)c2nn(Cc3ccccc3F)cc2F)CCc2nccnc21 [Example 178B] ?
Given back: < 5.52

Asked: Query for GST-hRIPK1 (8-327) (Homo sapiens (Human), UniProt Q13546): what pIC50 does the record show for C[C@H]1Oc2cc(C#N)cnc2N(C)C(=O)[C@H]1NC(=O)c1nnc(Cc2ccccc2)[nH]1 ?
Given back: 6.00 to 10.00

Asked: Query for GST-hRIPK1 (8-327) (Homo sapiens (Human), UniProt Q13546): what pIC50 does the record show for CN1C(=O)[C@@H](NC(=O)c2nnc(Cc3ccccc3)o2)CCc2cccnc21 [Example 148A] ?
Given back: 6.00 to 10.00

Asked: Query for GST-hRIPK1 (8-327) (Homo sapiens (Human), UniProt Q13546): what pIC50 does the record show for C[C@H]1Oc2cccnc2N(C)C(=O)[C@H]1NC(=O)c1ncc(Cc2ccccc2)o1 ?
Given back: 6.00 to 10.00

Asked: Query for GST-hRIPK1 (8-327) (Homo sapiens (Human), UniProt Q13546): what pIC50 does the record show for CN1C(=O)[C@@H](NC(=O)c2nnc(C3(c4ccccc4)CC3)[nH]2)COc2cccnc21 ?
Given back: 6.00 to 10.00

----------
conditions: male, cynomolgus monkey, in vivo, iv
Lab note: compare Cyno unbound CL with 80 mL/min/kg, writing 1 if less and -1 if equal or more.

As a guide, the following entries are already answered.
compound	class-assignment
C[C@H]1Oc2cccnc2N(C)C(=O)[C@H]1NC(=O)c1nnc(Cc2ccccc2)o1	-1
CN1C(=O)[C@@H](NC(=O)c2nnc(Cc3ccccc3)[nH]2)COc2cccnc21	1
CN1C(=O)[C@@H](NC(=O)c2nnc(Cc3ccccc3)[nH]2)[C@H]2C[C@H]2c2cccnc21 [Example 75A]	-1
C[C@H]1Oc2cccnc2N(C)C(=O)[C@H]1NC(=O)c1nnc(Cc2ccccc2)[nH]1	1
CN1C(=O)[C@@H](NC(=O)c2nnc(Cc3ccccc3)o2)COc2cccnc21	1

Asked: Input CN1C(=O)[C@@H](NC(=O)c2nnc(Cc3ccccc3)[nH]2)[C@H]2C[C@H]2c2nccnc21 [Example 119B] ; condition: Cyno unbound CL strictly below 80 mL/min/kg. Does it hold?
Given back: 1

Asked: Input CN1C(=O)[C@@H](NC(=O)c2nnc(Cc3ccccc3)o2)[C@H]2C[C@H]2c2nccnc21 [Example 177A] ; condition: Cyno unbound CL strictly below 80 mL/min/kg. Does it hold?
Given back: 1

----------
target: GST-hRIPK1 (8-327) (Homo sapiens (Human)); experiment: Fluorescent Polarization Binding (FP Binding) assay
pIC50: −log10 of the molar value.
Parameter: pIC50. Scope: all listed entries.

Reference set (8 entries):
molecule	pIC50
O=C(N[C@H]1C(=O)Nc2ncccc2[C@H]2C[C@H]21)c1nnc(Cc2ccccc2)[nH]1 [Example 110A]	< 5.52
CN1C(=O)[C@H](NC(=O)c2nnc(Cc3ccccc3)[nH]2)CCc2c1cnn2C [Example 101A]	< 5.52
[2H]C([2H])([2H])N1C(=O)[C@@H](NC(=O)c2nn(Cc3ccccc3)cc2F)[C@@H](C)Oc2ncccc21	6.00 to 10.00
CN1C(=O)[C@@H](NC(=O)c2nnc(Cc3ccccc3)o2)COc2cccnc21	6.00 to 10.00
O=C(N[C@H]1CC2(CC2)c2cc(F)cc(F)c2NC1=O)c1nnc(Cc2ccccc2)[nH]1 [Example 103B]	6.00 to 10.00
CN1C(=O)[C@@H](NC(=O)c2nnc(C3(c4ccccc4)CC3)s2)COc2ccccc21	6.00 to 10.00
Cc1c(Cl)c(C(=O)N[C@H]2COc3ccccc3N(C)C2=O)nn1Cc1ccccc1	6.00 to 10.00
[2H]C([2H])([2H])N1C(=O)[C@@H](NC(=O)c2nn(Cc3ccccc3)cc2F)[C@H]2C[C@H]2c2cc(S(C)(=O)=O)ccc21 [Example 183B]	6.00 to 10.00

Asked: Query for GST-hRIPK1 (8-327) (Homo sapiens (Human)): what pIC50 does the record show for Cc1cc2n(n1)CC[C@@H](NC(=O)c1nnc(Cc3ccccc3)[nH]1)C(=O)N2C [Example 129B] ?
Given back: < 5.52
